assayText: Phase I dose-escalating study, pharmacokinetics
Assay type: in vivo
condition: human, in vivo, half-life
measuredParameter: half-life
The answer should read as a number with its unit following.

Request: Find the measured half-life of COc1c(C)cc2c(c1O)[C@@H]1[C@@H]3[C@@H]4SC[C@]5(N[C@H](CO)Cc6c5[nH]c5ccccc65)C(=O)OC[C@@H](c5c6c(c(C)c(OC(C)=O)c54)OCO6)N3[C@@H](O)[C@H](C2)N1C [PM14, ECUBECTEDIN] and report it.
Result: 16 h

###

assayText: Phase I dose-escalating study, pharmacokinetics
Type: in vivo
condition: human, in vivo
measuredParameter: clearance (mL/min)
Write it as a number; the unit mL/min goes unstated.

Request: Please report the measured clearance for COc1c(C)cc2c(c1O)[C@@H]1[C@@H]3[C@@H]4SC[C@]5(N[C@H](CO)Cc6c5[nH]c5ccccc65)C(=O)OC[C@@H](c5c6c(c(C)c(OC(C)=O)c54)OCO6)N3[C@@H](O)[C@H](C2)N1C
Result: 98.3

###

assayText: Phase I dose-escalating study, pharmacokinetics
Format: in vivo
condition: human, in vivo
measuredParameter: Vd (L)
Just the number please, in L, no unit attached.

Request: Fill in Vd for record COc1c(C)cc2c(c1O)[C@@H]1[C@@H]3[C@@H]4SC[C@]5(N[C@H](CO)Cc6c5[nH]c5ccccc65)C(=O)OC[C@@H](c5c6c(c(C)c(OC(C)=O)c54)OCO6)N3[C@@H](O)[C@H](C2)N1C
Result: 128

###

assayText: Phase I dose-escalating study, pharmacokinetics
Assay type: in vivo
condition: human, in vivo, terminal half-life, median (range)
measuredParameter: half-life (h)
Numbers only; they are read as h.

Request: Could you please provide reported half-life for COc1c(C)cc2c(c1O)[C@@H]1[C@@H]3[C@@H]4SC[C@]5(N[C@H](CO)Cc6c5[nH]c5ccccc65)C(=O)OC[C@@H](c5c6c(c(C)c(OC(C)=O)c54)OCO6)N3[C@@H](O)[C@H](C2)N1C ? Thanks!
Result: 15.9

The measured values listed here are drawn from patent US20240277705A1.
